# pIC50 listing for each entry below
molecular target: bromodomain of BRD9 (GST fusion) / acetylated histone H4 peptide (BET Bromodomain Ligand) (Homo sapiens); construct: A GST fusion protein of the bromodomain of BRD9; assay: BRD9-H4 Tetraacetylated Peptide Inhibition AlphaScreen
Sequence (Q9H8M2 136-240 limits assumed): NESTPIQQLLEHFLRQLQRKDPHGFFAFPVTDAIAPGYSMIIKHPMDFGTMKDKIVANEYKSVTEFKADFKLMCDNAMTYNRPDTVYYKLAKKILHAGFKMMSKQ
pIC50: −log10 of the molar value.
Measurement Label: pIC50

{"columns": ["Query Smiles", "Observed Measurement"],
 "data": [
  ["Cc1cc(-c2ccc(C(=O)N3CCN(C)CC3)c(Cl)c2)cn(C)c1=O", 6.69],
  ["Cc1cc(-c2ccc(N)cc2)cn(C)c1=O", 6.89],
  ["COc1cc(-c2cc(C)c(=O)n(C)c2)ccc1C(=O)N1CCNCC1", 7.72],
  ["Cc1ccc(-c2cn(C)c(=O)c3ccccc23)cc1NS(C)(=O)=O", 6.62],
  ["Cc1ccc(-c2cc(C)c(=O)n(C3CC3)c2)cc1NS(C)(=O)=O", 5.29],
  ["Cc1cc(-c2cc(C)c(=O)n(C)c2)ccc1C(=O)N1CCN(C)CC1", 6.97],
  ["Cc1cc(-c2ccc(C(=O)NC3CCN(C)CC3)cc2)cn(C)c1=O", 6.35],
  ["Cc1ccc(-c2cn(C)c(=O)c3cccc(O)c23)cc1NS(C)(=O)=O", 5.28],
  ["Cc1cc(-c2cc(C)c(=O)n(C)c2)ccc1C(=O)N1CCNCC1", 7.48]
]}
